test system: A549 cells; conditions: A549 cells, WST-1, 24 h, mean ± standard error
Measured Attribute: TC50 (µM)
Kindly answer with a numeric value in µM, unit omitted.

Molecule: CNC(=O)c1cc(Oc2ccc(NC(=O)Nc3ccc(Cl)c(C(F)(F)F)c3)c(F)c2)ccn1 [Regorafenib, reference compound]
Test System: A549 cells
Result Number: 13

Molecule: COc1ccc(Nc2ccc3[nH]cc(C(=O)Nc4cccc(C(F)(F)F)c4)c3c2)cc1OC [compound 5b]
Test System: A549 cells
Result Number: 19

Molecule: O=C(Nc1cccc(C(F)(F)F)c1)c1c[nH]c2ccc(-c3cccc(CN4CCOCC4)c3)cc12 [compound 4a]
Test System: A549 cells
Result Number: 13

Exam item: May I ask what TC50 has been recorded for COc1ccc(-c2ccc3[nH]cc(C(=O)Nc4cccc(C(F)(F)F)c4)c3c2)cc1 [4b] ?
Marked response: 17
